# System: α7 integrin (LacZ reporter in α7+/LacZ myotubes)
# EXPERIMENT SUMMARY: Myotube α7 integrin FDG assay (Burkin assay in myotubes, 96-well)
# Type: cell-based, mouse
# TEST CONTEXT: Mus musculus, Myotube; 0.5 uM, myotubes; read-out: Burkin Assay in Myotubes (signal relative to DMSO)
Listing of recorded fold induction at 0.5 µM by entry.
Please state the value as a number alone, without comment.

Worked cases, fold induction at 0.5 µM given:
# COMPOUND, ASSAY VALUE
data = [
    ("CC1(C)Cc2c(ccc3ccccc23)C(=O)N1", 1.04),
    ("COc1ccc(NC(=O)c2ccc3nc(C)sc3c2)cc1", 0.903),
    ("CCOC(=O)C1CCCN(C(=O)CNS(=O)(=O)c2ccc(Br)s2)C1 (centres unmarked)", 0.953),
]

Record request: fold induction at 0.5 µM value, item CCS(=O)(=O)N1CCN(c2ccc([N+](=O)[O-])c(NCC3CCCO3)c2)CC1 (centres unmarked)
1.11

Also, `COc1cccc(NC(=O)c2ccc3c(c2)CCCC3)c1` please.
0.965
